test: MTT viability assay after treatment with Fluc mRNA/amino lipidated peptoid formulations; assay type: cell-based; conditions: human, HeLa cells, Relative Viability (%) 2% PEG
Reported viability at 8 h, 500 ng/well values for the following molecules.
outcome.measure: viability at 8 h, 500 ng/well (%)

# compound, recorded.result
measured = [
    ("CCCCCCCCCCN(CC(N)=O)C(=O)CN(CCCCCCCCCC)C(=O)CN(CCCCCCCCCC)C(=O)CN(CCCCCCCCCC)C(=O)CN(CCCCCCCCCC)C(=O)CN(CCc1ccccc1)C(=O)CN(CCc1ccccc1)C(=O)CN(CCN)C(=O)CN(CCc1ccccc1)C(=O)CN(CCc1ccccc1)C(=O)CN(CCN)C(=O)CN(CCc1ccccc1)C(=O)CN(CCc1ccccc1)C(=O)CNCCN", 94.8),
    ("CCCCCCCCCCN(CC(N)=O)C(=O)CN(CCCCCCCCCC)C(=O)CN(CCCCCCCCCC)C(=O)CN(CCCCCCCCCC)C(=O)CN(CCc1ccccc1)C(=O)CN(CCc1ccccc1)C(=O)CN(CCN)C(=O)CN(CCc1ccccc1)C(=O)CN(CCc1ccccc1)C(=O)CN(CCN)C(=O)CN(CCc1ccccc1)C(=O)CN(CCc1ccccc1)C(=O)CNCCN", 97.3),
    ("CCCCCCCCCCN(CC(N)=O)C(=O)CN(CCCCCCCCCC)C(=O)CN(CCCCCCCCCC)C(=O)CN(CCCCCCCCCC)C(=O)CN(CCCCCCCCCC)C(=O)CN(CCCCCCCCCC)C(=O)CN(CCc1ccccc1)C(=O)CN(CCc1ccccc1)C(=O)CN(CCN)C(=O)CN(CCc1ccccc1)C(=O)CN(CCc1ccccc1)C(=O)CN(CCN)C(=O)CN(CCc1ccccc1)C(=O)CN(CCc1ccccc1)C(=O)CNCCN", 118),
]
